system: ARID1A-KO HCT116 cells; experiment: Drug library screen, cell viability (CellTiter-Glo); format: cell-based, human; settings: HCT116 ARID1A-KO; 10 μM for 5 days; relative to cells treated with solvent (DMSO)
Readout Name: Cell viability, KO
Please give the numeric answer without any surrounding text.

Tell me Cell viability, KO reported for NS(=O)(=O)c1ccc(Nc2nc(OCC3CCCCC3)c3[nH]cnc3n2)cc1
124.8924

Tell me Cell viability, KO reported for O=c1cc(N2CCOCC2)oc2c(-c3ccccc3)cccc12
119.3969

Tell me Cell viability, KO reported for CC(/C=C/C(=O)NO)=C\[C@@H](C)C(=O)c1ccc(N(C)C)cc1
5

Tell me Cell viability, KO reported for NC1CC1c1cc(F)cc(F)c1OCc1ccccc1 (centres unmarked)
83.95

Tell me Cell viability, KO reported for COc1cc2ncnc(Nc3ccc(NC(=O)c4ccccc4)cc3)c2cc1OC
60.46

Tell me Cell viability, KO reported for COC(=O)[C@@]1(OC)C[C@H]2O[C@]1(C)n1c3ccccc3c3c4c(c5c6ccccc6n2c5c31)C(=O)N(C)C4
111.294

Tell me Cell viability, KO reported for O=C(Nc1nc2ccccc2n1CCN1CCOCC1)c1cccc([N+](=O)[O-])c1
160.7174

Tell me Cell viability, KO reported for CCCCCCCCCCCCCCCCCCc1ccc(C(=O)/C=C/C(=O)O)cc1
110.9715
